B1: CDC25A (parent)
chain: KKFRTKSRTWAGEKSKREMYSRLK

variants of: B1; experiment: protein stability index of a GFP-peptide fusion (GPS, HEK-293T) (PSI 1-6); higher = more stable; conditions: c terminus: a fixed tail appended;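 further: lentivirally expressed fusions sorted by FACS into six bins by GFP to DsRed ratio, PSI derived from sequencing read proportions per bin multiplied by bin number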
measurement_label: protein stability index
The answer should be a number; do not append a unit.

Entry KKFRTKSRTWAGEQSKREMYSRLK [K14Q] — recorded protein stability index = 3.09

Entry KKFRTKSRTWAGEKSKREMYSRLR [K24R] — recorded protein stability index = 2.91

Entry KKFRTKSRTWAGEKSKRGMYSRLK [E18G] — recorded protein stability index = 2.98

Entry KKFRTYSRTWAGEKSKREMYSRLK [K6Y] — recorded protein stability index = 2.92
